Every entry's value here was drawn from patent US20230212222A1.

# system_name: T1, GPR39 (G protein-coupled receptor 39) (Homo sapiens (Human), UniProt O43194 1-453)
# T1 sequence: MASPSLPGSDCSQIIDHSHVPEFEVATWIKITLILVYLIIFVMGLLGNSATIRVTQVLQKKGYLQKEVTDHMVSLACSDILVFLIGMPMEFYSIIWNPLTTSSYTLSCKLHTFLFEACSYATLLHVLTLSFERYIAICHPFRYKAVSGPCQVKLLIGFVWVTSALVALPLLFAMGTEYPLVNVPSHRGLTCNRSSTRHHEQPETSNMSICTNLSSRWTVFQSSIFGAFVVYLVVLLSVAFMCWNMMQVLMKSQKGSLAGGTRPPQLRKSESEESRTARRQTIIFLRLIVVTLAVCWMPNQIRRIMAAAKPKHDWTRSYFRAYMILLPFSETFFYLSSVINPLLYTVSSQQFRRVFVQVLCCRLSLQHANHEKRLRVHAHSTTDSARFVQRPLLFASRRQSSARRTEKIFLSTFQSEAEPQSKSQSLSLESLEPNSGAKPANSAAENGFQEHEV
# assay_comment: cell-based or functional assay
Numbered stars: 1 amine (or outer) side, 2 acyl side, 3 side chain; on linkers, the order of the positions; unused ones are H or OH. Square brackets hold non-standard residues; d marks the D form. Ends that are not written are not given here. * marks the point of attachment. DAMP‑2 = His whose imidazole is a 1,3-bis(2-cyclohexylethyl)-2,3-dihydro-1H-imidazol-4-yl group, O=C([C@H](CC1=CN(CCC2CCCCC2)CN1CCC1CCCCC1)N[*:1])[*:2]; 2‑(4-tert-butyl)phenyl = His carrying a 2-(4-tert-butylphenyl) group on the imidazole (imidazole C2), CC(C)(C)c1ccc(*)cc1; 1‑phenyl = His whose imidazole is a 1-phenyl-1H-imidazol-4-yl group, c1ccc(*)cc1; 2‑phenyl = His whose imidazole is a 2-phenyl-1H-imidazol-4-yl group; Biotin = O=C1N[C@H]2[C@H](CS[C@H]2CCCCC(=O)*)N1; 4‑chlorobenzhydryl = Clc1ccc(C(c2ccccc2)*)cc1; dPhe(4-Br) = N[C@H](Cc1ccc(Br)cc1)C(=O)O; dPhe(4-Cl) = N[C@H](Cc1ccc(Cl)cc1)C(=O)O; dPhe(4-Me) = Cc1ccc(C[C@@H](N)C(=O)O)cc1; Trt = c1ccc(C(c2ccccc2)(c2ccccc2)*)cc1; dPhe(4-F) = N[C@H](Cc1ccc(F)cc1)C(=O)O; Benzhydryl = c1ccc(C(c2ccccc2)*)cc1; Palmitoyl = CCCCCCCCCCCCCCCC(=O)*; Myristoyl = CCCCCCCCCCCCCC(=O)*; Lauroyl = CCCCCCCCCCCC(=O)*; Decanoyl = CCCCCCCCCC(=O)*; Octanoyl = CCCCCCCC(=O)*; Bn = c1ccc(C*)cc1
EC50 (luciferase reporter) by entry:
reported_endpoint: EC50 (luciferase reporter) (nM)

H(Trt)K(Octanoyl)FYW [HKFY-44] = 370
[dH](Trt)K(Octanoyl)[dPhe(4-Cl)][dY] [HKFY-14] = 20
H(Trt)K(Octanoyl)LY [HKFY-51] = 120
H(Trt)K(Octanoyl)FY [HKFY-1] = 150
H(Trt)K(Decanoyl)FY [HKFY-24] = 240
H(DAMP‑2)K(Octanoyl)FY [HKFY-8] = 33600
H(4‑methylbenzhydryl)K(Octanoyl)FY [HKFY-22] = 59800
H(Trt)K(Lauroyl)FY [HKFY-25] = 630
H(adamantan‑1‑yl)K(Octanoyl)FY [HKFY-23] = 2600
[dH](Benzhydryl)K(Octanoyl)[dPhe(4-Me)]Y [HKFY-62] = 830
H(Trt)K(Octanoyl)FYSDQQARF (not fully specified; printed as His(trt)-Lys(caprylic)-Phe-Tyr-Ser-Asp-Gln-Gln-Ala-Arg-Phe) [HKFY-38] = 3500
H(Bn)K(Octanoyl)FY [HKFY-3] = 4130
H(Trt)K(Octanoyl)[dPhe(4-F)]Y [HKFY-28] = 74
H(4‑chlorobenzhydryl)K(Octanoyl)FY (not fully specified) [HKFY-21] = 136000
H(Trt)K(Octanoyl)FW [HKFY-46] = 260
H(Trt)[dK](Octanoyl)[dPhe(4-Cl)]Y [HKFY-16] = 240
[dH](Trt)K(Octanoyl)[dPhe(4-Me)]Y [HKFY-31] = 20
H(Trt)K(Octanoyl)[dPhe(4-Br)]Y [HKFY-29] = 310
K(Octanoyl)H(Trt)FY [HKFY-55] = 2490
H(Trt)K(Palmitoyl)FY [HKFY-27] = 560
H(1‑phenyl)K(Octanoyl)[dPhe(4-Me)]Y [HKFY-58] = 20
H(Trt)K(Myristoyl)FY [HKFY-26] = 280
Biotin-H(Benzhydryl)K(Octanoyl)[dPhe(4-Me)]Y [HKFY-72] = 11
H(2‑phenyl)K(Octanoyl)[dPhe(4-Me)]Y [HKFY-57] = 260
H(2‑(4-tert-butyl)phenyl)K(Octanoyl)[dPhe(4-Me)]Y [HKFY-60] = 190
H(3,3‑diphenylethyl)K(Octanoyl)FY [HKFY-17] = 8120
